Provenance of the data: patent US9464064B2

Tested System: HCV NS3 helicase NS3h_1b(con1) (Hepatitis C virus genotype 1b, UniProt Q9WMX2)
Construct: truncated C-terminally His-tagged NS3 proteins lacking the N-terminal protease, called NS3h; His-tag (C); made in house
Sequence (Q9WMX2 1192-1657): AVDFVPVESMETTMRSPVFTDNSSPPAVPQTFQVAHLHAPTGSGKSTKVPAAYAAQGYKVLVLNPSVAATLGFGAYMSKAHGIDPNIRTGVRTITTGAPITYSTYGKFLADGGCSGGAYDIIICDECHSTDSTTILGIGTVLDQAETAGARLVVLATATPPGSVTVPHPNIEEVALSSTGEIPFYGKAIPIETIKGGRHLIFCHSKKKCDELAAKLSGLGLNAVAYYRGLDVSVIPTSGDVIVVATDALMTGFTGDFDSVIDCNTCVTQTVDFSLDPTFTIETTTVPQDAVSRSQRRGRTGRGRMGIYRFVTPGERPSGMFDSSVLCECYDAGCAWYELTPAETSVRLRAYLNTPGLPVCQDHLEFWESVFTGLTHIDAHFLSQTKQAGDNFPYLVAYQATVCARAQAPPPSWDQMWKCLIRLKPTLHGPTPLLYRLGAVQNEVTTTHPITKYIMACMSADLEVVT
Procedure Summary: MBHA screen of NCI mechanistic set library at 20 μM (percent inhibition, compound interference)
Type: biochemical
Stated Conditions: compounds at 20 μM, MBHA with DNA substrate; calculated from Equation 1
Test Readout: Inh. (%) (Inhibition)

Some solved entries appear below for comparison.
COc1ccc(-c2csc(=[N+]3CCCCC3)s2)cc1.O=S(=O)(O)O ... 1.1
Cc1ccc(/C=C2\CNC/C(=C\c3ccc(C)cc3)C2=O)cc1.Cl ... 20.4

I = O=C1/C(=C/c2ccc([N+](=O)[O-])cc2)Sc2scc(-c3cccc([N+](=O)[O-])c3)[n+]21.[Cl-]
II = Cl.O=C1C=CC(=O)c2c(O)c(N3CCN(CCOCCO)CC3)c(Br)c(O)c21
III = CCC12C[N+]3([O-])CCc4c([nH]c5ccccc45)C(C(=O)OC)(c4cc5c(cc4OC)N(C)C4C(O)(C(=O)OC)C(OC(C)=O)C6(CC)C=CCN7CCC54C76)CC(C3)C1O2 (centres unmarked)
IV = COc1ccc2cc(CN3CCC(C4CCN(Cc5ccc6cc(OC)ccc6c5)CC4)CC3)ccc2c1.Cl
V = Nc1ncnc2c(C3OC(CO)C(O)C3O)[nH]nc12 (centres unmarked)
## Input Could you please order the items by Inh. (%) (Inhibition), going from the lowest number to the highest? Output spec: a listing of the labels in the requested order.
## Output I, IV, V, II, III
(I: −14.8%, IV: −8.0%, V: 1.0%, II: 6.1%, III: 25.6%)
